- Tested target: S6K1 (Homo sapiens, UniProt P23443)
- Sequence (P23443 whole entry): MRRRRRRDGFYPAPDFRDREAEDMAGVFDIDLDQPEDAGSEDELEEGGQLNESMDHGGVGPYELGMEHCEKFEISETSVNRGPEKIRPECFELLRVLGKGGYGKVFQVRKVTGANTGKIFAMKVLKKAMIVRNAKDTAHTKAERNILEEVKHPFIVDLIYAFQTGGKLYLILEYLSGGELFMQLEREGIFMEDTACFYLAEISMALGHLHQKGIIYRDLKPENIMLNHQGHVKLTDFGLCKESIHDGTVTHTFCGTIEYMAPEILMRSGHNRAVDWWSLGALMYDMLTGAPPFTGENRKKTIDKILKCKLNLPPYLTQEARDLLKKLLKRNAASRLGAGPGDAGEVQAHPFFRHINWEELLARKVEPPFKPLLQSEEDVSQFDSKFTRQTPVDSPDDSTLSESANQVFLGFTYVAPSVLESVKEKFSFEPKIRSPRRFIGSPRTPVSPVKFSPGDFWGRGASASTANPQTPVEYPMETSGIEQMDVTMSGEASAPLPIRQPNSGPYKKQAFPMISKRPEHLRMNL
- Test details: Kinase profiling (radiometric filter-binding)
- Assay type: biochemical
- Details: S6K1, 1 µM inhibitor; read-out: Residual activity, %
Square brackets hold non-standard residues; d marks the D form. Peptide text beside a SMILES is read from it. * marks the point of attachment. X3 = O=C(CCCCCNCc1nc2c(sc3cc(Br)cnc32)c(=O)[nH]1)*
Please use yes for remaining activity at 1 µM under 80% and no for everything else, ties included.

N=C(N)NCCC[C@@H](NC(=O)CCCCCNCc1nc2c(sc3cc(Br)cnc32)c(=O)[nH]1)C(=O)N[C@H](CCCNC(=N)N)C(=O)N[C@H](CCCNC(=N)N)C(=O)N[C@H](CCCNC(=N)N)C(=O)N[C@H](CCCNC(=N)N)C(=O)N[C@H](CCCNC(=N)N)C(=O)N[C@H](CCCCN)C(N)=O [ARC-3126, BPTP-Ahx-(D-Arg)6-D-Lys-NH2] (X3-[dR][dR][dR][dR][dR][dR][dK]-NH2); yes
N=C(N)NCCC[C@@H](NC(=O)CCCCCNC(=O)Cn1cnc2c(I)c(I)c(I)c(I)c21)C(=O)N[C@H](CCCNC(=N)N)C(=O)N[C@H](CCCNC(=N)N)C(=O)N[C@H](CCCNC(=N)N)C(=O)N[C@H](CCCNC(=N)N)C(=O)N[C@H](CCCNC(=N)N)C(=O)N[C@H](CCCCN)C(N)=O; yes
N=C(N)NCCC[C@@H](NC(=O)CNC(=O)[C@@H](CCCNC(=N)N)NC(=O)[C@@H](CCCNC(=N)N)NC(=O)Cn1cc(CNCc2nc3c(sc4ccc(Br)cc43)c(=O)[nH]2)nn1)C(=O)N[C@H](CCCCN)C(N)=O; yes
N=C(N)NCCC[C@@H](NC(=O)CNC(=O)[C@@H](CCCNC(=N)N)NC(=O)[C@@H](CCCNC(=N)N)NC(=O)CCCCCCCNCc1nc2c(sc3cc(Br)cnc32)c(=O)[nH]1)C(=O)N[C@H](CCCCN)C(N)=O; no

Q. Given N=C(N)NCCC[C@@H](NC(=O)CNC(=O)[C@@H](CCCNC(=N)N)NC(=O)[C@@H](CCCNC(=N)N)NC(=O)CCCCCCCNCc1nc2c(sc3ccc(Br)cc32)c(=O)[nH]1)C(=O)N[C@H](CCCCN)C(N)=O , is recorded remaining activity at 1 µM strictly lower than 80%?
A. no
